# subject_of_test: recombinant human MAO-B (monoamine oxidase-B) (Homo sapiens)
# Construct: purchased Sigma-Aldrich
# Sequence (P27338 1-520): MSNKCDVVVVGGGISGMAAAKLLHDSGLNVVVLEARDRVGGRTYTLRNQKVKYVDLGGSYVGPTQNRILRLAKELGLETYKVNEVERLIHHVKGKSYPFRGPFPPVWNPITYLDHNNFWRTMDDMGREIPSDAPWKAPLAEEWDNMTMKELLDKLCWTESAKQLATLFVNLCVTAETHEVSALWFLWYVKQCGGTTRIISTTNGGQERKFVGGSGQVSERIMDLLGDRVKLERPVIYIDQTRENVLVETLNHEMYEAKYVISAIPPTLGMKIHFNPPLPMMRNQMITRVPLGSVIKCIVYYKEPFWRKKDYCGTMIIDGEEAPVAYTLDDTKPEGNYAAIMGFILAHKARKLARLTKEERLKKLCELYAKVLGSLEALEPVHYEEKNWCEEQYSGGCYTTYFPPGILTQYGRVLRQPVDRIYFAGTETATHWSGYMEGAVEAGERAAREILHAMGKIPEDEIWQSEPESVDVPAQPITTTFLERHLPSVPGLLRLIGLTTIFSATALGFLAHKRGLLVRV
# protocol_summary: Activity on recombinant human MAO-B, method similar to the VAP-1 assay
# Assay type: biochemical
# condition_summary: substrate 1 mM benzylamine; read-out: Inhibitory Activity (IC50, nM) MAO-B
Structures can show the parent of a compound that is named as a salt.
reported_property: IC50 (nM)

Examples with answers:
compound	reported_property	measurement_unit	data_value
CS(=O)(=O)c1ccc(-c2ccc(CCn3cnn(C/C(=C/F)CN)c3=O)s2)cc1	IC50	nM	37000
NC/C(=C\F)Cn1ncn(Cc2ccc(-c3csc(CO)c3)s2)c1=O	IC50	nM	170
CC(C)c1nc(-c2cccc(-c3ccc(Cn4cnn(C/C(=C/F)CN)c4=O)s3)c2)no1 [Example 38, hydrochloride]	IC50	nM	1030
Cn1cc(-c2ccc(Cn3cnn(C/C(=C/F)CN)c3=O)s2)ccc1=O	IC50	nM	1600
NC/C(=C\F)Cn1ncn(Cc2ccc(-c3ccc4ocnc4c3)s2)c1=O [Example 62, hydrochloride]	IC50	nM	310
CN1C(=O)COc2ccc(-c3ccc(Cn4cnn(C/C(=C/F)CN)c4=O)s3)cc21 [Example 96, hydrochloride]	IC50	nM	120

[I] NC/C(=C\F)Cn1ncn(Cc2cc3cc(-c4ccc5c(c4)OCO5)ccc3s2)c1=O
[II] CN1C(=O)CCc2cc(-c3ccc4sc(Cn5cnn(C/C(=C/F)CN)c5=O)cc4c3)ccc21
[III] NC/C(=C\F)Cn1ncn(Cc2ccc(-c3ccc4c(c3)NCCO4)s2)c1=O
[IV] NC/C(=C\F)Cn1ncn(Cc2ccc(-c3ccc(-c4noc(=O)[nH]4)cc3)s2)c1=O
[V] CN1CCOc2cc(-c3ccc(Cn4cnn(C/C(=C/F)CN)c4=O)s3)ccc21 [Example 103, hydrochloride]
Rank descending by IC50. List the labels in the requested order. IV, II, V, III, I

---

# subject_of_test: recombinant human MAO-A (monoamine oxidase-A) (Homo sapiens)
# Construct: purchased Sigma-Aldrich
# Sequence (P21397 1-527): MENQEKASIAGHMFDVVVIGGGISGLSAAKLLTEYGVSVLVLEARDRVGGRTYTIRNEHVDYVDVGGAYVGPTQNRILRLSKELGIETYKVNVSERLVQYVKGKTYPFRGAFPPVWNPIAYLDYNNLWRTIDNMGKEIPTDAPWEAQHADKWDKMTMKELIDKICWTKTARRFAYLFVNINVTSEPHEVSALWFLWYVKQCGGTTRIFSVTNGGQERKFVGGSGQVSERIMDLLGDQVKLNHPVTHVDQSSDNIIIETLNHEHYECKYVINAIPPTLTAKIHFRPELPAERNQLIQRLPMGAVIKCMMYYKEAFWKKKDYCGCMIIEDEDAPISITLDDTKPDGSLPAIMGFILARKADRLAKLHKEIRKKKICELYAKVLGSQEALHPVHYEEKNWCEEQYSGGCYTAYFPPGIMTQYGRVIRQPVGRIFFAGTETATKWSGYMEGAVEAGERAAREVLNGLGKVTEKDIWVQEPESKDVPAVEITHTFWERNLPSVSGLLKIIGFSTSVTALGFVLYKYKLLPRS
# protocol_summary: Activity on recombinant human MAO-A, method similar to the VAP-1 assay
# Format: biochemical
# condition_summary: substrate 0.5 mM tyramine; read-out: Inhibitory Activity (IC50, nM) MAO-A
Counter-ions that a name gives are not always drawn.
IC50 by entry:

Example cases with answers are listed next.
compound	subject_of_test	IC50
N#Cc1ccc(-c2ccc(Cn3cnn(C/C(=C/F)CN)c3=O)s2)cn1 [Example 50, hydrochloride]	recombinant human MAO-A (monoamine oxidase-A) (Homo sapiens)	> 100000 nM
Cc1cc(-c2ccc(Cn3cnn(C/C(=C/F)CN)c3=O)s2)n(C)n1	recombinant human MAO-A (monoamine oxidase-A) (Homo sapiens)	> 100000 nM

Quick note, IC50 for CN(C)S(=O)(=O)c1ccc(-c2ccc(Cn3cnn(C/C(=C/F)CN)c3=O)s2)cc1 [Example 9, hydrochloride] landed at > 100000 nM

---

# subject_of_test: recombinant human DAO (diamine oxidase) (Homo sapiens)
# Construct: purchased R&D systems
# Sequence (P19801 20-751): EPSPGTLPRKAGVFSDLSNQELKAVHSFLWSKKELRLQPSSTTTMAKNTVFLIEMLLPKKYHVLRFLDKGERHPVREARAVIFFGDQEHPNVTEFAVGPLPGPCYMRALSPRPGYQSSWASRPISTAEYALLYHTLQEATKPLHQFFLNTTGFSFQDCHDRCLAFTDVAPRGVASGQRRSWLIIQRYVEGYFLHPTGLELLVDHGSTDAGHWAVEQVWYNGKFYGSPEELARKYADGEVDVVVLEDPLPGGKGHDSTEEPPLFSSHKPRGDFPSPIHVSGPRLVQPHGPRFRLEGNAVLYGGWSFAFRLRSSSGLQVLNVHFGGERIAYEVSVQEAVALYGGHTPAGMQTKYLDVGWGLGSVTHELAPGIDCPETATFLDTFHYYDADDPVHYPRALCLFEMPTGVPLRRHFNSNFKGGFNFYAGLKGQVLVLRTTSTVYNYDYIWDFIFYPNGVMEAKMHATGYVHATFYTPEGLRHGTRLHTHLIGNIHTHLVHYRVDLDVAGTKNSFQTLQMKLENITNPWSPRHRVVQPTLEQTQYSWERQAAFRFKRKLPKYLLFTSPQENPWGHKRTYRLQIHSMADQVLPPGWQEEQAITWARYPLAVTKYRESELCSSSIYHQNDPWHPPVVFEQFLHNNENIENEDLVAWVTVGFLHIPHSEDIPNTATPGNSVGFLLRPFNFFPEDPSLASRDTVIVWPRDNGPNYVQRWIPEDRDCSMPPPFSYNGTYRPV
# protocol_summary: Activity on recombinant human DAO, method similar to the VAP-1 assay
# Assay type: biochemical
# condition_summary: substrate 1 mM putrescine; read-out: Inhibitory Activity (IC50, nM) DAO
Structures can show the parent of a compound that is named as a salt.
reported_property: IC50 (nM)

compound	measurement_unit	IC50
CS(=O)(=O)c1cccc(-c2ccc(Cn3cnn(C/C(=C/F)CN)c3=O)s2)c1 [Example 181]	nM	760
CC(=O)c1ccc(-c2ccc(Cn3cnn(C/C(=C/F)CN)c3=O)s2)cc1 [Example 180]	nM	1200
NC/C(=C\F)Cn1ncn(Cc2ccc(-c3c[nH]c4ncccc34)s2)c1=O [Example 115, hydrochloride]	nM	860

---

# subject_of_test: recombinant human VAP-1 (Homo sapiens, UniProt Q16853)
# Construct: purchased R&D systems
# Sequence (Q16853 whole entry): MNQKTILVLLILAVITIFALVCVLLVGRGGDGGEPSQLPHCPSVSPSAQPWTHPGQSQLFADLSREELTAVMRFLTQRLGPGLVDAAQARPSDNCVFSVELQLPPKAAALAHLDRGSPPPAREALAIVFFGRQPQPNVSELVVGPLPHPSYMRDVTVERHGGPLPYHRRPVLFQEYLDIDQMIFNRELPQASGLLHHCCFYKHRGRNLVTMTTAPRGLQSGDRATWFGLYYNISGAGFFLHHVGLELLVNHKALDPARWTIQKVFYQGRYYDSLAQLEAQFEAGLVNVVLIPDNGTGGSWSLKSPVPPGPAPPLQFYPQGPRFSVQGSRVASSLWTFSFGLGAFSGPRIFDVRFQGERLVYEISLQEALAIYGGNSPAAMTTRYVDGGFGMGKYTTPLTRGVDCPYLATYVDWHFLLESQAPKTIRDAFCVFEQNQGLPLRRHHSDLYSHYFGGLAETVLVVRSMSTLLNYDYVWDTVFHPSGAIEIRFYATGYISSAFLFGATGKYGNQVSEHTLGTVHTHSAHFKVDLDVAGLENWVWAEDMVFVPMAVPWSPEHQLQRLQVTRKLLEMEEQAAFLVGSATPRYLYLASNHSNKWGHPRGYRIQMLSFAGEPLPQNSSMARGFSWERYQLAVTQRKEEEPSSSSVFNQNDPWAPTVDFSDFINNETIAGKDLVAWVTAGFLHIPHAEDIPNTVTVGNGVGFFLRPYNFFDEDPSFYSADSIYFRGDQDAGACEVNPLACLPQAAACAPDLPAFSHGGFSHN
# protocol_summary: Activity on recombinant human VAP-1, HRP-coupled Amplex Red hydrogen peroxide assay
# Assay type: biochemical
# condition_summary: substrate 1 mM benzylamine; compound incubated with enzyme at 37° C. for 30 minutes; pH 7.4; read-out: Inhibitory Activity (IC50, nM) human VAP-1
Counter-ions that a name gives are not always drawn.
reported_property: IC50 (nM)

compound	IC50 (nM)
Cc1cc(-c2ccc3sc(Cn4cnn(C/C(=C/F)CN)c4=O)cc3c2)cc2c1NC(=O)CC2 [Example 210]	1.7
Cc1cc(-c2ccc(Cn3cnn(C/C(=C\F)CN)c3=O)s2)cc2c1NC(=O)CC2 [Example 76, hydrochloride]	2.7

[1] NC/C(=C/F)Cn1ncn(Cc2ccc(-c3ccc(N)cc3)s2)c1=O [Example 3, hydrochloride]
[2] NC/C(=C\F)Cn1ncn(Cc2ccc(C#Cc3ccc(N4CCOCC4)nc3)s2)c1=O [Example 129, hydrochloride]
# returns the entry with the larger IC50; inputs 1 and 2 Selection: enter the item's label. 1

---

# subject_of_test: recombinant human MAO-B (monoamine oxidase-B) (Homo sapiens, UniProt P27338)
# Construct: purchased Sigma-Aldrich
# protocol_summary: Activity on recombinant human MAO-B, method similar to the VAP-1 assay
# Type: biochemical
# condition_summary: substrate 1 mM benzylamine; read-out: Inhibitory Activity (IC50, nM) MAO-B
Where a name gives a salt, the structure may show the parent alone.
reported_property: IC50 (nM)

molecule	measurement_unit	IC50
CC(C)n1nccc1-c1ccc(Cn2cnn(C/C(=C/F)CN)c2=O)s1 [Example 161]	nM	15
NC/C(=C\F)Cn1ncn(Cc2ccc(-c3ccc4c(c3)NC(=O)OC4)s2)c1=O [Example 100, hydrochloride]	nM	810
NC/C(=C\F)Cn1ncn(Cc2ccc(-c3cnc4[nH]ccc4c3)s2)c1=O [Example 65, hydrochloride]	nM	3400
NC/C(=C\F)Cn1ncn(Cc2ccc(/C=C/c3ccsc3)s2)c1=O [Example 121, hydrochloride]	nM	290
NC/C(=C\F)Cn1ncn(Cc2ccc(-c3cnc4c(c3)CCC(=O)N4)s2)c1=O [Example 148]	nM	24000

[P] Cn1cncc1C#Cc1ccc(Cn2cnn(C/C(=C/F)CN)c2=O)s1 [Example 130, hydrochloride]
[Q] NC/C(=C\F)Cn1ncn(Cc2cc3cc(-c4ccc(C(F)(F)F)nc4)ccc3s2)c1=O [Example 209]
Task for the reader: decide whether P or Q has the larger IC50. Write the label of whichever entry you select. Q

[P] NC/C(=C\F)Cn1ncn(Cc2ccc(-c3ccc4[nH]ncc4c3)s2)c1=O [Example 63, hydrochloride]
[Q] NC/C(=C\F)Cn1ncn(Cc2ccc(C#Cc3ccc4c(n3)OCCN4)s2)c1=O [Example 136, hydrochloride]
API: POST /compare with P and Q ; response names the item with higher IC50. Answer by quoting the chosen item's label. Q
